TARGET_UNDER_TEST: BTK (Homo sapiens, UniProt Q06187)
Construct: purchased ProQinase GmbH, Freiburg, Germany
Sequence (Q06187 whole entry): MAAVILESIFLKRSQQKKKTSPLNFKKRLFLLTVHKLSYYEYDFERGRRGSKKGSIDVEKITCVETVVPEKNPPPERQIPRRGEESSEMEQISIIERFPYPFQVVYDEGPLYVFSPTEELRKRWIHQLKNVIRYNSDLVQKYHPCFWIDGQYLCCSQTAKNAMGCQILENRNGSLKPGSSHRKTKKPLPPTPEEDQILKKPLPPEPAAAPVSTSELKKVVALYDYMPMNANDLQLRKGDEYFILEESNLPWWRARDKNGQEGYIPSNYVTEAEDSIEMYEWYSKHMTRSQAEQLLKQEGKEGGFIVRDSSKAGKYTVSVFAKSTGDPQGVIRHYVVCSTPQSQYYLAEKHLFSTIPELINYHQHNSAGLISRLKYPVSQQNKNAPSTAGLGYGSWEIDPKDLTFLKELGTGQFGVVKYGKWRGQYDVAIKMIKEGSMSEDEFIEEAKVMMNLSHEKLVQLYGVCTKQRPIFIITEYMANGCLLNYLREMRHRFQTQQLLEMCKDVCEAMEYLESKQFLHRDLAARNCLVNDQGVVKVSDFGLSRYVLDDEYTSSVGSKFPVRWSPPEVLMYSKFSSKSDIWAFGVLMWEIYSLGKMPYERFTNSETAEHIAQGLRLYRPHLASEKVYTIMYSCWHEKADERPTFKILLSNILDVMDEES
EXPERIMENT_NOTES: Kinobeads assay with quantitative mass spectrometry, BTK
Type: binding
TEST_CONTEXT: Jurkat/Ramos lysate, read-out: BTK inhibition value (IC50)
pIC50: −log10 of the molar value.
QUANTITY_NAME: pIC50

BTK (Homo sapiens, UniProt Q06187) assay, compound C=CC(=O)Nc1cccc(Cn2ncc3cnc(Nc4cnn(C)c4)nc32)c1 [Example 1] , recorded pIC50 = 7.92

[1] C#CC(=O)Nc1cccc(Cn2ncc3cnc(Nc4cnn(C)c4)nc32)c1 [Example 3]
[2] C=CC(=O)Nc1cc(Cn2ncc3cnc(Nc4cnn(C)c4)nc32)ccc1F [Example 2]
q: Param pair: 1 , 2 . Output: the one whose pIC50 is numerically greater. Kindly state the label of the option you pick.
a: 1
(1: 7.92, 2: 7.14)
